Reference for the values: ChEMBL document CHEMBL1828519

# study_target: Metabotropic glutamate receptor 2 (Homo sapiens, UniProt Q14416)
# Sequence (Q14416 whole entry): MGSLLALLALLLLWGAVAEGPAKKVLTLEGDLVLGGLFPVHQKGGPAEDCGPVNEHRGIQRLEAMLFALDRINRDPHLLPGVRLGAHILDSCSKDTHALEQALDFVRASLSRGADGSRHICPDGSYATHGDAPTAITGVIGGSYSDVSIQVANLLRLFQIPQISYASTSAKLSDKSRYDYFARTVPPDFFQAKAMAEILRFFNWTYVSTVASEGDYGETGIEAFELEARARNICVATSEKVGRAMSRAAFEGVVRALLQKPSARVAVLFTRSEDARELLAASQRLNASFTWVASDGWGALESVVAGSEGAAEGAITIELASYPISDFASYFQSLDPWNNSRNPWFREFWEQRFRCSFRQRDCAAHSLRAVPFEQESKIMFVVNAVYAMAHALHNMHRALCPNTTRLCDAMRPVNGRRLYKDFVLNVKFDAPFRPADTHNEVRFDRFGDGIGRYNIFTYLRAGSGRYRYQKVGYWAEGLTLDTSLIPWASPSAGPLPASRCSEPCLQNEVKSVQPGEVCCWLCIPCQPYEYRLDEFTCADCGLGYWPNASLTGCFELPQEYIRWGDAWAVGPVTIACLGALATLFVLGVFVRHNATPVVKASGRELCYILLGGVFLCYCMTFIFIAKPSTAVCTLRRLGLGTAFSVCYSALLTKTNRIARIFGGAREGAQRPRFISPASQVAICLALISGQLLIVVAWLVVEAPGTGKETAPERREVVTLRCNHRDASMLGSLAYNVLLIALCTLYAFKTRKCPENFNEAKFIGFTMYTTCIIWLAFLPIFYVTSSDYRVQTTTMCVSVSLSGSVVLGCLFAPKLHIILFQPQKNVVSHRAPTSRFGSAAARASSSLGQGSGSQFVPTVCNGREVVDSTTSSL
# assay_protocol: Positive allosteric modulation of mGlu2 receptor assessed as potentiation of glutamate-induced calcium mobilization
pEC50: −log10 of the molar value.
I'd be grateful if you could share measured pEC50 for these entries.

Task item: Entry `c1cnc(Nc2nc3c(s2)CCCc2[nH]ncc2-3)nc1` : reported pEC50 = ?
Reply: < 5.00

Task item: Entry `c1ccc(Nc2nc3c(s2)CCc2[nH]ncc2-3)nc1` : reported pEC50 = ?
Reply: < 5.00

Task item: Entry `c1ccc(Nc2nc3c(s2)CCCc2[nH]ncc2-3)nc1` : reported pEC50 = ?
Reply: < 5.00

###

# assay_protocol: Ratio of drug level in brain to plasma of Sprague-Dawley rat at 10 mg/kg, po after 1 hr
# Assay type: ADME, organism-based
# Design: dose 10 mg/kg, route oral
# applied_conditions: read-out: BPR
property_name: Kp at 1 h

Task item: Entry `c1ccc(Nc2nc(-c3cn[nH]c3)cs2)nc1` : reported Kp at 1 h = ?
Reply: 1

Task item: Entry `c1ccc(Nc2nc3c(s2)CCc2[nH]ncc2-3)nc1` : reported Kp at 1 h = ?
Reply: 0.5

Task item: Entry `c1ccc(Nc2nc3c(s2)CCCc2[nH]ncc2-3)nc1` : reported Kp at 1 h = ?
Reply: 0.8

###

# assay_protocol: Fraction unbound in rat plasma
# Format: ADME, cell-free
property_name: fraction unbound
Respond using a number only.

Task item: Entry `c1ccc(Nc2nc3c(s2)CCCc2[nH]ncc2-3)nc1` : reported fraction unbound = ?
Reply: 0.011

Task item: Entry `c1cnc(Nc2nc3c(s2)CCCc2[nH]ncc2-3)nc1` : reported fraction unbound = ?
Reply: 0.006

Task item: Entry `c1ccc(Nc2nc3c(s2)CCc2[nH]ncc2-3)nc1` : reported fraction unbound = ?
Reply: 0.023

Task item: Entry `c1ccc(Nc2nc(-c3cn[nH]c3)cs2)nc1` : reported fraction unbound = ?
Reply: 0.092

###

I'd be grateful if you could share measured log10 of EC50 for these entries.
# study_target: Metabotropic glutamate receptor 4 (Homo sapiens)
# Sequence (Q14833 whole entry): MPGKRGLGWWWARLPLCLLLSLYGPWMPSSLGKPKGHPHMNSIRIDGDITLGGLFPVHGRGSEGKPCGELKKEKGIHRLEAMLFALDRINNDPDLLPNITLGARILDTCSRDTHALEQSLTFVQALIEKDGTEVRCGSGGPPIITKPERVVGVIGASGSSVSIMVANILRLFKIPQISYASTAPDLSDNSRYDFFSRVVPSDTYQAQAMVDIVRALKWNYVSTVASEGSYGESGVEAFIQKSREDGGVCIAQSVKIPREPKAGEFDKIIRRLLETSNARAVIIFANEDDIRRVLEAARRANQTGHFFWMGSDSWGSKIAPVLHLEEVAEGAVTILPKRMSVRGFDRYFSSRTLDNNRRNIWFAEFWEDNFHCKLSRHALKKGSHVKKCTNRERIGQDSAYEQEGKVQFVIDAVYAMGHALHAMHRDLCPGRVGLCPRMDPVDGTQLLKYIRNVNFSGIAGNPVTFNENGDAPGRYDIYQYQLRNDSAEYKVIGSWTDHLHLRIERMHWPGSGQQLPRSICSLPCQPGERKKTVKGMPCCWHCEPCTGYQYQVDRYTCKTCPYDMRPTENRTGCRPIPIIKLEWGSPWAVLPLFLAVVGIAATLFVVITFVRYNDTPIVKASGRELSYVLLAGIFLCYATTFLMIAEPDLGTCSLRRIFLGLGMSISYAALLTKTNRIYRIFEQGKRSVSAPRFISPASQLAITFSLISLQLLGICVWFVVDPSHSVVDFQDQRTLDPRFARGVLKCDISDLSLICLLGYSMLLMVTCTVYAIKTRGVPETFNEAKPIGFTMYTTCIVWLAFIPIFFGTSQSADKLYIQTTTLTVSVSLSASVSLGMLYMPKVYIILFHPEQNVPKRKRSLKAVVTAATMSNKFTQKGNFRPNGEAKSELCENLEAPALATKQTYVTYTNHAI
# assay_protocol: Positive allosteric modulation of human mGlu4 receptor expressed in BHK cells assessed as potentiation of glutamate-induced calcium mobilization after 1 hr by FLIPR assay
Form field - Quantity: EC50; Unit: nM; Scale: log10

Task item: Missing value: log10 of EC50, Metabotropic glutamate receptor 4 (Homo sapiens), entry `COc1ccnc(Nc2nc3c(s2)CCCc2[nH]ncc2-3)n1` . Fill in?
Reply: 2.00

Task item: Missing value: log10 of EC50, Metabotropic glutamate receptor 4 (Homo sapiens), entry `c1ccc(Nc2nc3c(s2)CCCc2[nH]ncc2-3)nc1` . Fill in?
Reply: 0.95

Task item: Missing value: log10 of EC50, Metabotropic glutamate receptor 4 (Homo sapiens), entry `Fc1cccc(Nc2nc3c(s2)CCCc2[nH]ncc2-3)n1` . Fill in?
Reply: 2.02

Task item: Missing value: log10 of EC50, Metabotropic glutamate receptor 4 (Homo sapiens), entry `N#Cc1cccc(Nc2nc3c(s2)CCCc2[nH]ncc2-3)n1` . Fill in?
Reply: 3.69

Task item: Missing value: log10 of EC50, Metabotropic glutamate receptor 4 (Homo sapiens), entry `OCc1cccc(Nc2nc3c(s2)CCCc2n[nH]cc2-3)n1` . Fill in?
Reply: 3.43

Task item: Missing value: log10 of EC50, Metabotropic glutamate receptor 4 (Homo sapiens), entry `O=C(Nc1cc(Cl)cc(Cl)c1)[C@H]1CCCC[C@H]1C(=O)O` . Fill in?
Reply: 2.88

Task item: Missing value: log10 of EC50, Metabotropic glutamate receptor 4 (Homo sapiens), entry `Cc1cccc(Nc2nc3c(s2)CCCc2[nH]ncc2-3)n1` . Fill in?
Reply: 2.15

Task item: Missing value: log10 of EC50, Metabotropic glutamate receptor 4 (Homo sapiens), entry `Cc1cccc(Nc2nc3c(s2)CCc2[nH]ncc2-3)n1` . Fill in?
Reply: 2.96

Task item: Missing value: log10 of EC50, Metabotropic glutamate receptor 4 (Homo sapiens), entry `c1cc(Nc2nc3c(s2)CCCc2n[nH]cc2-3)ncn1` . Fill in?
Reply: 3.11

Task item: Missing value: log10 of EC50, Metabotropic glutamate receptor 4 (Homo sapiens), entry Cc1cc(C)cc(-n2ncc3c(N4CCCC(C)C4)ncnc32)c1 (stereo not drawn) . Fill in?
Reply: 3.66

Task item: Missing value: log10 of EC50, Metabotropic glutamate receptor 4 (Homo sapiens), entry `Cc1ccnc(Nc2nc3c(s2)CCCc2[nH]ncc2-3)n1` . Fill in?
Reply: 1.71

Task item: Missing value: log10 of EC50, Metabotropic glutamate receptor 4 (Homo sapiens), entry `COCCOc1cccc(Nc2nc3c(s2)CCCc2n[nH]cc2-3)n1` . Fill in?
Reply: 2.59

Task item: Missing value: log10 of EC50, Metabotropic glutamate receptor 4 (Homo sapiens), entry `c1ccc(Nc2nc3c(s2)CCc2[nH]ncc2-3)cc1` . Fill in?
Reply: 3.34

Task item: Missing value: log10 of EC50, Metabotropic glutamate receptor 4 (Homo sapiens), entry `Cn1ccc(Nc2nc3c(s2)CCCc2[nH]ncc2-3)n1` . Fill in?
Reply: 3.48

Task item: Missing value: log10 of EC50, Metabotropic glutamate receptor 4 (Homo sapiens), entry `Clc1cccc(Nc2nc3c(s2)CCCc2[nH]ncc2-3)n1` . Fill in?
Reply: 3.04

Task item: Missing value: log10 of EC50, Metabotropic glutamate receptor 4 (Homo sapiens), entry `c1cnc(Nc2nc3c(s2)CCCc2[nH]ncc2-3)nc1` . Fill in?
Reply: 0.85

Task item: Missing value: log10 of EC50, Metabotropic glutamate receptor 4 (Homo sapiens), entry `c1[nH]nc2c1-c1nc(NC3CCCCC3)sc1CCC2` . Fill in?
Reply: 3.11

Task item: Missing value: log10 of EC50, Metabotropic glutamate receptor 4 (Homo sapiens), entry `Fc1ccc(Nc2nc3c(s2)CCCc2[nH]ncc2-3)nc1` . Fill in?
Reply: 2.88

Task item: Missing value: log10 of EC50, Metabotropic glutamate receptor 4 (Homo sapiens), entry `c1cc(Nc2nc3c(s2)CCCc2[nH]ncc2-3)[nH]n1` . Fill in?
Reply: 3.51

Task item: Missing value: log10 of EC50, Metabotropic glutamate receptor 4 (Homo sapiens), entry `CCNc1cccc(Nc2nc3c(s2)CCCc2n[nH]cc2-3)n1` . Fill in?
Reply: 2.78

Task item: Missing value: log10 of EC50, Metabotropic glutamate receptor 4 (Homo sapiens), entry `c1ccc(Nc2nc(-c3cn[nH]c3)cs2)nc1` . Fill in?
Reply: 2.61

Task item: Missing value: log10 of EC50, Metabotropic glutamate receptor 4 (Homo sapiens), entry `c1ccc(Nc2nc3c(s2)CCc2[nH]ncc2-3)nc1` . Fill in?
Reply: 2.34

Task item: Missing value: log10 of EC50, Metabotropic glutamate receptor 4 (Homo sapiens), entry `CN(C)c1cccc(Nc2nc3c(s2)CCCc2[nH]ncc2-3)n1` . Fill in?
Reply: 2.53

Task item: Missing value: log10 of EC50, Metabotropic glutamate receptor 4 (Homo sapiens), entry `Cc1cccnc1Nc1nc2c(s1)CCCc1[nH]ncc1-2` . Fill in?
Reply: 3.53

Task item: Missing value: log10 of EC50, Metabotropic glutamate receptor 4 (Homo sapiens), entry `Cc1cc(Nc2nc3c(s2)CCCc2[nH]ncc2-3)[nH]n1` . Fill in?
Reply: 3.38

Task item: Missing value: log10 of EC50, Metabotropic glutamate receptor 4 (Homo sapiens), entry `Cc1n[nH]cc1-c1csc(Nc2ccccn2)n1` . Fill in?
Reply: 1.75
